- target_or_system: Histone deacetylase 1 (Homo sapiens, UniProt Q13547)
- Sequence (Q13547 whole entry): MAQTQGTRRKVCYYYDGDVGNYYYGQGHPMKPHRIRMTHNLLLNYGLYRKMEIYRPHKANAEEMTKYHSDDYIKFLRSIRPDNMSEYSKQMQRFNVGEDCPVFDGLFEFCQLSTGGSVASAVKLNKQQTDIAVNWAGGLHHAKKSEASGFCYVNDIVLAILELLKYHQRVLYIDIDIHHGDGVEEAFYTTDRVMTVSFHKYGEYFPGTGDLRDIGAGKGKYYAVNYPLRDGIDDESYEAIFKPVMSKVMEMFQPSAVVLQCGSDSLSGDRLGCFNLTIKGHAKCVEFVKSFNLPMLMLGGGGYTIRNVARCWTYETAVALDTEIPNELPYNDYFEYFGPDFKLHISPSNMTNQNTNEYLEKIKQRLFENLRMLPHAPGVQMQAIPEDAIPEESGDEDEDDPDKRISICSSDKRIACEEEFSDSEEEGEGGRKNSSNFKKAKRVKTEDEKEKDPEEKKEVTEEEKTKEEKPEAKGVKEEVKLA
result_type: pIC50
Worth noting: pIC50 values are minus log10 of concentrations stated in mol/L.

Problem: Which value of pIC50 has been reported for CCC[C@@H](O)Cc1c(Br)c(O)c2c(=O)c3c(O)cc(O)c4c5c(O)cc(O)c6c(=O)c7c(O)c(Br)c(C[C@H](C)O)c8c1c2c(c34)c(c65)c78 in the records?
Result: 4.96

###

- Tested on: NCI/ADR-RES
- measurement_notes: Cytotoxicity against human NCI/ADR-RES cells after 48 hrs by MTT assay
- Type: functional, cell-based
result_type: IC50
Give the value; after it, write the unit.

Problem: Which value of IC50 has been reported for CCC[C@@H](O)Cc1c(Br)c(O)c2c(=O)c3c(O)cc(O)c4c5c(O)cc(O)c6c(=O)c7c(O)c(Br)c(C[C@H](C)O)c8c1c2c(c34)c(c65)c78 in the records?
Result: 3.5 µM

###

- target_or_system: Induced myeloid leukemia cell differentiation protein Mcl-1 (Homo sapiens, UniProt Q07820)
- Sequence (Q07820 whole entry): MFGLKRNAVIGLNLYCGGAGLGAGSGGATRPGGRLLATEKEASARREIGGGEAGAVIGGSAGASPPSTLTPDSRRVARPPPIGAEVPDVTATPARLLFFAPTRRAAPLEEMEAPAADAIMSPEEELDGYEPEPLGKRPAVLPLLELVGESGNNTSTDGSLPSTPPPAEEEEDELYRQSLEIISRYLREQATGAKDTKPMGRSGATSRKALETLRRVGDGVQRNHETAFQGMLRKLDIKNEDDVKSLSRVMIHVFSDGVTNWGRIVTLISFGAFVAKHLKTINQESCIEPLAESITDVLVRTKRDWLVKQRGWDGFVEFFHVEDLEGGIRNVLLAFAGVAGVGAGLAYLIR
- measurement_notes: Inhibition of MCL1 binding to Bak by FRET assay
result_type: pIC50
Worth noting: pIC50 values are minus log10 of concentrations stated in mol/L.

Problem: Which value of pIC50 has been reported for CCC[C@@H](O)Cc1c(Br)c(O)c2c(=O)c3c(O)c(Br)c(O)c4c5c(O)c(Br)c(O)c6c(=O)c7c(O)c(Br)c(C[C@H](O)CCC)c8c1c2c(c34)c(c65)c78 in the records?
Result: 5.48
